# MEASUREMENT PROTOCOL: Pharmacokinetics and biodistribution of PS upon oral administration (Example 27)
# Type: in vivo, rat
# ASSAY CONTEXT: Sprague-Dawley, rat; medulla; rats, single oral dose of PS 250 mg/kg; read-out: AUC0-24 h
METRIC NAME: AUC(0-t) (µM·h)
Answer format: numeric, µM·h implied, no suffix.

compound CCOP(=O)(OCC)OCCCCOC(=O)CC1=C(C)/C(=C/c2ccc([S+](C)[O-])cc2)c2ccc(F)cc21 (stereo not shown) [PS, phosphosulindac] , AUC(0-t) observed: 0.3

----------
# MEASUREMENT PROTOCOL: Pharmacokinetics and biodistribution after topical PS 8% ointment to hind paws (Example 25)
# Assay type: in vivo, mouse
# ASSAY CONTEXT: mouse, in vivo, topical or ocular, 50 μl per paw of PS 8% ointment, SN (sciatic nerve); normal mice, topical PS 8% ointment to hind paws
METRIC NAME: half-life (h)
Only the number, expressed in h, is required.

Record summary for CCOP(=O)(OCC)OCCCCOC(=O)CC1=C(C)/C(=C/c2ccc([S+](C)[O-])cc2)c2ccc(F)cc21 (stereo not shown) : reported half-life = 57.4

----------
# MEASUREMENT PROTOCOL: Pharmacokinetics and biodistribution of PS upon oral administration (Example 27)
# Assay type: in vivo, rat
# ASSAY CONTEXT: Sprague-Dawley, rat; stomach; rats, single oral dose of PS 250 mg/kg
METRIC NAME: half-life (h)
Supply the numeric figure in h, leaving out any unit text.

# molecule CCOP(=O)(OCC)OCCCCOC(=O)CC1=C(C)/C(=C/c2ccc([S+](C)[O-])cc2)c2ccc(F)cc21 (stereo not shown) [PS, phosphosulindac] ; its half-life = 3.3

----------
I'd be grateful if you could share measured concentration at 24 h for these entries.
# MEASUREMENT PROTOCOL: Pharmacokinetics and biodistribution after 3% PS gel on outer surface of eyelid (Example 26)
# Format: in vivo, rabbit
# ASSAY CONTEXT: male, New Zealand White, rabbit, topical; conjunctiva, 24 h; rabbits, 3% PS gel on outer surface of upper eyelids; read-out: Amount in tissue, Mean ± SEM
# Experimental: The pharmacokinetics and biodistribution of 3% PS gel applied to the outer surface of both upper eyelids was studies in male New Zealand White rabbits. Eyelid and tissues of the globe were dissected and frozen quickly in liquid nitrogen until the levels of PS and its metabolites were determined by HPLC as described Xie et al. (Br J Pharmacol (2012);165:2152-66).
Answer with a number only, understood to be in nM.

Kindly note the recorded concentration at 24 h for CCOP(=O)(OCC)OCCCCOC(=O)CC1=C(C)/C(=C/c2ccc([S+](C)[O-])cc2)c2ccc(F)cc21 (centres unmarked) , which is 500

Measured concentration at 24 h of CC1=C(CC(=O)O)c2cc(F)ccc2/C1=C\c1ccc([S+](C)[O-])cc1 (centres unmarked) : 0

----------
# MEASUREMENT PROTOCOL: Pharmacokinetics and biodistribution after topical PS 8% ointment to hind paws (Example 25)
# Assay type: in vivo, mouse
# ASSAY CONTEXT: mouse, in vivo, topical or ocular, 50 μl per paw of PS 8% ointment, leg muscle; normal mice, topical PS 8% ointment to hind paws; read-out: Cmax, mean ± SEM
METRIC NAME: Cmax
Note to self: number, then unit, no commentary.

Cmax recorded for this compound, CCOP(=O)(OCC)OCCCCOC(=O)CC1=C(C)/C(=C/c2ccc([S+](C)[O-])cc2)c2ccc(F)cc21 (stereo not shown) , is 35 µM

All figures here come from patent US20250345350A1.
